# Assayed Target: ATP-dependent translocase ABCB1 (Homo sapiens)
# Sequence (P08183 whole entry): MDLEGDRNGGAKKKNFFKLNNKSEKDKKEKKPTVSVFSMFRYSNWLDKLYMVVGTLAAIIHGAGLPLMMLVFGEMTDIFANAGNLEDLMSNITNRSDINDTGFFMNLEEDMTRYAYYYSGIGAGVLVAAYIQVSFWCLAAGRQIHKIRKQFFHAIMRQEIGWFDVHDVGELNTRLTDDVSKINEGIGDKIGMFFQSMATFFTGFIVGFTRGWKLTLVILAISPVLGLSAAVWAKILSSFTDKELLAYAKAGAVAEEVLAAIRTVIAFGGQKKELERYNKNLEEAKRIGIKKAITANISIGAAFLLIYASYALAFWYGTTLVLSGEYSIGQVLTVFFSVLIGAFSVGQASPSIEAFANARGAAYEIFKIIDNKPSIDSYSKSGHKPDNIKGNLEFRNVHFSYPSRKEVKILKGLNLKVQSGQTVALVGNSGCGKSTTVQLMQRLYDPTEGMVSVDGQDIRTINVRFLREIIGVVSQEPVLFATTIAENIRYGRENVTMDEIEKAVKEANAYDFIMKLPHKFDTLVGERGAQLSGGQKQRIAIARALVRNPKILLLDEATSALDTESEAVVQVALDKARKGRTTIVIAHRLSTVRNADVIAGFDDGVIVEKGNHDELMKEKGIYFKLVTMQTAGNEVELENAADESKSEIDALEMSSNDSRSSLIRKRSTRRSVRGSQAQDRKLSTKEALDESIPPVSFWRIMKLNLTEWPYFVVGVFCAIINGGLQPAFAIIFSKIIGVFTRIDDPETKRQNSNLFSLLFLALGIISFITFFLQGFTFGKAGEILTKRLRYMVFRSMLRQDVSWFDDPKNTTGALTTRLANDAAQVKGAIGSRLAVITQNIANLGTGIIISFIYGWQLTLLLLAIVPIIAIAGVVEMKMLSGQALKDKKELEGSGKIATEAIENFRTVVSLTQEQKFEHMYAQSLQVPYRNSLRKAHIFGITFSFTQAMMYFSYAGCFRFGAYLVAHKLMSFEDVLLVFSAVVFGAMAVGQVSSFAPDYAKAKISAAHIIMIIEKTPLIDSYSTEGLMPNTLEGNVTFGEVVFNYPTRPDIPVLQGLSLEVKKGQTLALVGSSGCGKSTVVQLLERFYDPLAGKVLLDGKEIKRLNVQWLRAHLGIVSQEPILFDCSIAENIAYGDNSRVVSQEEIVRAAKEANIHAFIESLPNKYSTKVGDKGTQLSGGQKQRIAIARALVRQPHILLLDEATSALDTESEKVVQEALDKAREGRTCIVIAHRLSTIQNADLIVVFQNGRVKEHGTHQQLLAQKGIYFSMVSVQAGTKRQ
# Procedure Summary: TP_TRANSPORTER: intracellular accumulation in MDR1-expressing LLC-PK1 cells
# Type: functional, cell-based
# Condition Summary: pig
Property: Activity

# Smiles Representation, Property, Readout Value
data = [
    ("CC(=O)O[C@H]1C(=O)[C@@]2(C)[C@H]([C@H](OC(=O)c3ccccc3)[C@]3(O)C[C@H](OC(=O)[C@H](O)[C@@H](NC(=O)c4ccccc4)c4ccccc4)C(C)=C1C3(C)C)[C@]1(OC(C)=O)CO[C@@H]1C[C@@H]2O", "Activity", "substrate [+]"),
    ("COc1cccc2c1C(=O)c1c(O)c3c(c(O)c1C2=O)C[C@@](O)(C(C)=O)C[C@@H]3O[C@H]1C[C@H](N)[C@H](O)[C@H](C)O1", "Activity", "substrate [+]"),
    ("CC[C@]1(O)C[C@H]2CN(CCc3c([nH]c4ccccc34)[C@@](C(=O)OC)(c3cc4c(cc3OC)N(C=O)[C@H]3[C@@](O)(C(=O)OC)[C@H](OC(C)=O)[C@]5(CC)C=CCN6CC[C@]43[C@@H]65)C2)C1", "Activity", "substrate [+]"),
    ("CC(=O)OCOC(=O)CN(CC(=O)OCOC(C)=O)Cc1c(OC(C)=O)ccc2c1Oc1c(ccc(OC(C)=O)c1CN(CC(=O)OCOC(C)=O)CC(=O)OCOC(C)=O)C21OC(=O)c2ccccc21", "Activity", "substrate [+]"),
    ("COC(=O)c1ccccc1-c1c2ccc(=N)cc-2oc2cc(N)ccc12.Cl", "Activity", "substrate [+]"),
]
